Tested on: Bifidobacterium infantis strain PB-STR-093
Method notes: Antibiotic susceptibility (MIC) of isolated strains, EFSA standards
Assay type: cell-based
Experimental context: observed value
Readout name: Observed Antibiotic MIC (µg/mL)
Use µg/mL as the unit, but write only the number.

Q: Look up Observed Antibiotic MIC: [H]/N=C(/N)N[C@H]1[C@H](O)[C@@H](O)[C@H](O[C@@H]2O[C@@H](C)[C@](O)(C=O)[C@H]2O[C@@H]2O[C@@H](CO)[C@H](O)[C@@H](O)[C@@H]2NC)[C@@H](N/C(N)=N\[H])[C@@H]1O [Streptomycin]
Ans: 32

Q: Another compound: CCC[C@@H]1C[C@@H](C(=O)N[C@@H]([C@H]2O[C@H](SC)[C@H](O)[C@@H](O)[C@H]2O)[C@H](C)Cl)N(C)C1 [Clindamycin]
Ans: 0.125

Q: Another compound: CN(C)[C@@H]1C(O)=C(C(N)=O)C(=O)[C@@]2(O)C(O)=C3C(=O)c4c(O)cccc4[C@@](C)(O)[C@H]3C[C@@H]12 [Tetracycline]
Ans: 4

Q: Another compound: CC[C@H]1OC(=O)[C@H](C)[C@@H](O[C@H]2C[C@@](C)(OC)[C@@H](O)[C@H](C)O2)[C@H](C)[C@@H](O[C@@H]2O[C@H](C)C[C@H](N(C)C)[C@H]2O)[C@](C)(O)C[C@@H](C)C(=O)[C@H](C)[C@@H](O)[C@]1(C)O [Erythromycin]
Ans: 1

Q: Another compound: O=C(N[C@H](CO)[C@H](O)c1ccc([N+](=O)[O-])cc1)C(Cl)Cl [Chloramphenicol]
Ans: 4

Q: Another compound: CN[C@H](CC(C)C)C(=O)N[C@H]1C(=O)N[C@@H](CC(N)=O)C(=O)N[C@H]2C(=O)N[C@H]3C(=O)N[C@H](C(=O)N[C@H](C(=O)O)c4cc(O)cc(O)c4-c4cc3ccc4O)[C@H](O)c3ccc(c(Cl)c3)Oc3cc2cc(c3O[C@@H]2O[C@H](CO)[C@@H](O)[C@H](O)[C@H]2O[C@H]2C[C@](C)(N)[C@H](O)[C@H](C)O2)Oc2ccc(cc2Cl)[C@H]1O [Vancomycin]
Ans: 0.5

Q: Another compound: CC1(C)S[C@@H]2[C@H](NC(=O)[C@H](N)c3ccccc3)C(=O)N2[C@H]1C(=O)O [Ampicillin]
Ans: 2

The reported measurements were obtained from patent US20260231998A1.
